Reported IC50 by item:
Target: Avi-KRAS G12V (2-169) GTP/RAF1 RBD-3xFLAG (51-131) (Homo sapiens, UniProt P01116, G12V)
Construct: Avi-KRAS G12V (2-169)
Sequence (P01116 2-169 isoform P01116-2 G12V): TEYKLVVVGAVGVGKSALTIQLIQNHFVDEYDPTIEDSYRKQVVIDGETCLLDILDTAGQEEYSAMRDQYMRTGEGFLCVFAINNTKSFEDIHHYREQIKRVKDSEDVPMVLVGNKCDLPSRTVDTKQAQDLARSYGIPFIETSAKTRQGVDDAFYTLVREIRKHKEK
Assay: Raf1-KRAS G12V-GTP disruption HTRF assay (Biological Example 3)
Assay type: binding
Conditions: KRAS G12V, GTP-loaded

Please review the following examples before continuing.
CCN(c1nc(OC[C@@]23CCCN2C[C@H](F)C3)nc2c(F)c(-c3ccc(F)c4sc(N)c(C#N)c34)c(C(F)(F)F)cc12)[C@H]1C[C@H](C)N(C(=O)OC2COC2)C1 (atropisomer, axis not shown) [Compound 926] = 0.1 to 1 µM
CCN(c1nc(OC[C@@]23CCCN2C[C@H](F)C3)nc2c(F)c(-c3ccc(F)c4sc(N)c(C#N)c34)c(C(F)(F)F)cc12)[C@H]1C[C@@H](C)N(C(=O)[C@H]2CCO2)C1 (atropisomer, axis not shown) [Compound 752] = 0.1 to 1 µM
CCN(c1nc(OC[C@@]23CCCN2C[C@H](F)C3)nc2c(F)c(-c3ccc(F)c4sc(N)c(C#N)c34)c(C(F)(F)F)cc12)[C@H]1C[C@H](COC)N(C(=O)[C@@H]2C[C@@H]2F)C1 (atropisomer, axis not shown) [Compound 869] = 0.1 to 1 µM
CCN(c1nc(OC[C@@]23CCCN2C[C@H](F)C3)nc2c(F)c(-c3ccc(F)c4sc(N)c(C#N)c34)c(C(F)(F)F)cc12)[C@H]1C[C@H](C)N(C(=O)OC2CC(OC)C2)C1 (some centres unmarked) [Compound 907] = 0.1 to 1 µM

Let us examine a further case.
Query block: Reported IC50, compound CCN(c1nc(OC[C@@]23CCCN2C[C@H](F)C3)nc2c(F)c(-c3ccc(F)c4sc(N)c(C#N)c34)c(C(F)(F)F)cc12)C1CCN(C(=O)C2CC2)C1 (some centres unmarked) [Compound 903] : ____
Result block: ≤ 0.1 µM

* * *

Biological target: Avi-KRAS G12V (1-169) GppNHp/RAF1 RBD-3xFLAG (52-151) (Homo sapiens, UniProt P01116, G12V)
Construct: Avi-KRAS G12V (1-169)
Sequence (P01116 1-169 isoform P01116-2 G12V): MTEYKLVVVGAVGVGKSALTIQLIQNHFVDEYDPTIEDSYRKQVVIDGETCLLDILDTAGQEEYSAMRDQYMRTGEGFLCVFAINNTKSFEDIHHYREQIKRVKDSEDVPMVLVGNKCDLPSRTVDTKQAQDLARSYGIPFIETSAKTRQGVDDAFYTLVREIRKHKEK
Assay: Raf1-KRAS G12V-GppNHP disruption HTRF assay (Biological Example 1)
Format: binding
Conditions: KRAS G12V-GppNHp/RAF1 RBD HTRF
Reported IC50 by item:

N#Cc1c(N)sc2c(F)ccc(-c3c(C(F)(F)F)cc4c(N5CCO[C@@H]6C[C@@H]65)nc(OC[C@@]56CCCN5C[C@H](F)C6)nc4c3F)c12 = 100 to 1000 nM

Query block: Reported IC50, molecule CCN(c1nc(OC[C@@]23CCCN2C[C@H](F)C3)nc2c(F)c(-c3ccc(F)c4sc(N)c(C#N)c34)c(C(F)(F)F)cc12)[C@H]1CCN(C(=O)CC#N)C1 (atropisomer, axis not shown) : ____
Result block: < 100 nM

Query block: Consider next the molecule N#Cc1c(N)sc2c(F)ccc(-c3c(C(F)(F)F)cc4c(N5CCN6C(=O)CCC6C5)nc(OCC56CCCN5CC(F)C6)nc4c3F)c12 (stereo not shown) [Compound 430] in the same way.
Result block: 1000 to 10000 nM

Query block: Consider next the molecule `CCC(=O)N1C[C@@H](N(C)c2nc(OC[C@@]34CCCN3C[C@H](F)C4)nc3c(F)c(-c4ccc(F)c5sc(N)c(C#N)c45)c(C(F)(F)F)cc23)C[C@@H]1C` in the same way.
Result block: 100 to 1000 nM

Query block: Consider next the molecule `CC(=O)N1CCC[C@H](N(C)c2nc(OC[C@@]34CCCN3C[C@H](F)C4)nc3c(F)c(-c4ccc(F)c5sc(N)c(C#N)c45)c(C(F)(F)F)cc23)C1` in the same way.
Result block: 100 to 1000 nM

Query block: Consider next the molecule CCN(c1nc(OC[C@@]23CCCN2C[C@H](F)C3)nc2c(F)c(-c3ccc(F)c4sc(N)c(C#N)c34)c(C(F)(F)F)cc12)[C@H]1C[C@H](C)N(C(=O)N(C)C)C1 (atropisomer, axis not shown) in the same way.
Result block: < 100 nM

Query block: Consider next the molecule `C[C@@H]1[C@H](N(C)c2nc(OC[C@@]34CCCN3C[C@H](F)C4)nc3c(F)c(-c4ccc(F)c5sc(N)c(C#N)c45)c(C(F)(F)F)cc23)CCN1C(=O)C1(F)CC1` in the same way.
Result block: 1000 to 10000 nM

Query block: Consider next the molecule CCN(c1nc(OC[C@@]23CCCN2C[C@H](F)C3)nc2c(F)c(-c3ccc(F)c4sc(N)c(C#N)c34)c(C(F)(F)F)cc12)[C@H]1C[C@H]2CN(C)C(=O)N2C1 (atropisomer, axis not shown; (aS)) in the same way.
Result block: < 100 nM

Query block: Consider next the molecule CCN(c1nc(OC[C@@]23CCCN2C[C@H](F)C3)nc2c(F)c(-c3ccc(F)c4sc(N)c(C#N)c34)c(C(F)(F)F)cc12)[C@H]1CCN(C(=O)C(F)F)C1 (atropisomer, axis not shown) in the same way.
Result block: < 100 nM

Query block: Consider next the molecule `C[C@@H]1[C@H](N(C)c2nc(OC[C@@]34CCCN3C[C@H](F)C4)nc3c(F)c(-c4ccc(F)c5sc(N)c(C#N)c45)c(C(F)(F)F)cc23)CC(=O)N1C` in the same way.
Result block: 100 to 1000 nM
